System: ACHN renal
test summary: NCI tumour cell line growth inhibition, 48 h; in the data active means GI50 below about 0.43 µM; inactive means the rest
Outcomes: active, inactive

[[record]]
compound = "Cc1c(Cl)cccc1NC(=O)c1sc2nc3c(cc2c1N)CCCC3"
class_name = "inactive"

[[record]]
compound = "COc1ccc(-c2n/c(=C\\c3c(O)[nH]c4ccccc34)cc3c2=Nc2ccccc2-3)cc1"
class_name = "inactive"

[[record]]
compound = "C=CC(C)(O)CC/C=C(\\CO)C(=O)OC1C(C)OC(O[C@](C)(C=C)CC/C=C(\\CO)C(=O)O[C@H]2C[C@@]3(C(=O)OC4OC(CO)C(O)C(O)C4OC4OC(C)C(OC5OC(CO)C(O)C5O)C(OC5OC(CO)C(O)C(O)C5O)C4O)C(CC2(C)C)C2=CCC4[C@@]5(C)CC[C@H](OC6OC(COC7OC(C)C(O)C(O)C7OC7OCC(O)C(O)C7O)C(O)C(O)C6NC(C)=O)C(C)(C)C5CC[C@@]4(C)[C@]2(C)C[C@H]3O)C(O)C1O (some centres not stated)"
class_name = "active"

[[record]]
compound = "COc1cc(/C=N/NC(=O)c2ccccc2Nc2cccc(C(F)(F)F)c2)cc(OC)c1OC"
class_name = "inactive"

[[record]]
compound = "Cc1cc2nc(-c3c(F)cccc3Cl)n(Cc3c(F)cccc3Cl)c2cc1C"
class_name = "inactive"

[[record]]
compound = "Cn1cc(C2=C(c3cn(CCCCC(=N)N)c4ccccc34)C(=O)NC2=O)c2ccccc21"
class_name = "inactive"

[[record]]
compound = "COc1ccc2c(c1)/C(=N/OC(C)=O)c1c-2cnc2ccccc12"
class_name = "inactive"


###

Recorded TGI for the following molecules
System: SK-MEL-2 melanoma
test summary: NCI tumour cell line growth inhibition, 48 h
readout type: TGI

[[record]]
molecule = "Cc1ccc(S(=O)(=O)Nn2c(O)c(C#N)c(-c3ccc([N+](=O)[O-])cc3)c(C#N)c2=O)cc1"
reading = "> 100 µM"

[[record]]
molecule = "CC(=O)OC(=O)O/C=C\\CCl"
reading = "> 100 µM"

[[record]]
molecule = "C=C1C(=O)OC2C3OC(C)(CCC(O)C3COC(C)=O)CC(OC(=O)/C(=C/C)COC(C)=O)C12 (stereo not given)"
reading = "6.96 µM"

[[record]]
molecule = "COc1ccc(C)cc1C1CCC(=O)O1 (stereo not given)"
reading = "> 100 µM"

[[record]]
molecule = "NC(=O)c1ccc(N(C(N)=O)c2c(F)cccc2F)nc1-c1ccc(F)cc1F"
reading = "> 100 µM"


###

Tested on: ACHN renal
test summary: NCI tumour cell line growth inhibition, 48 h
readout type: TGI (µM)

[[record]]
molecule = "O=C(Nc1ccc2ccccc2c1)c1cc2cc(CCl)ccc2oc1=O"
readout_type = "TGI"
unit_symbol = "µM"
inequality_symbol = ">"
reading = 100

[[record]]
molecule = "CC(C)(C)C1=C(Br)C(OC(=O)C(F)(F)F)(C(C)(C)C)OP1(=O)c1ccccc1 (stereo not given)"
readout_type = "TGI"
unit_symbol = "µM"
inequality_symbol = ">"
reading = 100

[[record]]
molecule = "CN(C)CCNC(=O)c1c(O)ccc2c1c1c(n2CCc2ccccc2)C(=O)c2ccccc2C1=O"
readout_type = "TGI"
unit_symbol = "µM"
inequality_symbol = "="
reading = 23

[[record]]
molecule = "CC1=C(N2CC2)C(=O)c2ccccc2C1=O"
readout_type = "TGI"
unit_symbol = "µM"
inequality_symbol = "="
reading = 1.07

[[record]]
molecule = "O=C1C(c2c(O)[nH]c3ccc(S(=O)(=O)NCCO)cc23)=Nc2ccccc21"
readout_type = "TGI"
unit_symbol = "µM"
inequality_symbol = ">"
reading = 100

